- test-target: T1, human TIGIT expressed on CHO-K1 cells (human, UniProt Q495A1 22-244)
- T1 construct: whole, on cells; also called human TIGIT-CHO-K1 cells; human TIGIT over-expressing cell line
- T1 sequence (looked up): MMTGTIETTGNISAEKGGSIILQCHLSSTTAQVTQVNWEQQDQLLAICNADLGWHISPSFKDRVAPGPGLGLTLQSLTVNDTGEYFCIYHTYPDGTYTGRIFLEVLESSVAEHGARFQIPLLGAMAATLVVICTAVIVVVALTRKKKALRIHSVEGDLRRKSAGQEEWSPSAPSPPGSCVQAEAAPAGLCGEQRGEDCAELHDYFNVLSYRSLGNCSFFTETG
- method: flow cytometry competition: biotinylated CD155-Fc on human TIGIT-CHO-K1 cells
reported-property: IC50
A complete answer gives the number and then names the unit.

Measured IC50 of huTIGIT-6-4 (antibody, human IgG1, kappa, V domains shown, Humanized IgG; also called 6VH6.M7 + 6VL1.M1) VH: QVQLVQSGAEVKKPGASVKVSCKASGYTFTENAMHWVRQAPGQRLEWIGGINPNNAGTSYSQKFQGRATLTVDTSASTAYMELSSLRSEDTAVYYCTRSSYYRYDLDYWGQGTTVTVSS VL: DIQMTQSPSSLSASVGDRVTITCQASQDIKTALAWYQQKPGKAPKLLIYSASYRYTGVPSRFSGSGSGTDFTFTISSLQPEDIATYYCHQHYTTPWTFGGGTKLEIKR : 1.17 nM

Measured IC50 of huTIGIT-19-3 (antibody, human IgG1, kappa, V domains shown, Humanized IgG; also called 19VH4.M10 + 19VL1.M4) VH: QVQLVQSGAEVKKPGASVKVSCKASGYTFTRYSMYWVRQAPGQGLEWIAFIDAYSGGSTYAQKFQGKATLTVDTSISTAYMELSRLRSDDTAVYYCARGGDYGWYLGVWGQGTLVTVSS VL: DIQMTQSPSSLSASVGDRVTITCRPSENIYTYLSWYQQKPGKAPKLLIYNAKSLPSGVPSRFSGSGSGTDFTLTISSLQPEDFATYYCQHHYGNPLTFGQGTKVEIKR : 0.21 nM

Measured IC50 of TIGIT-3 chimeric antibody (antibody, human IgG1, kappa, V domains shown, also called 3VH + 3VL) VH: EVQLVESGGGLVQPGGSLKLSCAASGFTFSSYGMSWVRQTPDKRLELVATIKSDGGSTNLPDSVKGRFTISRDNAKNTLHLQMSSLKSEDTAMYYCVRGYFDYWGQGTSVTVSS VL: DIVMTQSHKFMSTSVGDRVSITCKASQDVKTAVAWYQQKPGQSPKLLIYWSSTRHTGVPDRFTGSRSLTDHTLTISSVQAEDLALYYCQQYYSTPYTFGGGTKLELKR : 0.558 nM

Measured IC50 of huTIGIT-6-2 (antibody, human IgG1, kappa, V domains shown, Humanized IgG; also called 6VH6.M5 + 6VL1.M1) VH: QVQLVQSGAEVKKPGASVKVSCKASGYTITENTMHWVRQAPGQRLEWIGGINPNNAGTSYSQKFQGRATLTVDTSASTAYMELSSLRSEDTAVYYCTRSSYYRYDLDYWGQGTTVTVSS VL: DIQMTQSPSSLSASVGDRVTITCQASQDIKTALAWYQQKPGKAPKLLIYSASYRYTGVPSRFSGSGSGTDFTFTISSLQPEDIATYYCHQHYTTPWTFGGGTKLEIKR : 0.975 nM

Measured IC50 of TIGIT-19 chimeric antibody (antibody, human IgG1, kappa, V domains shown, also called 19VH + 19VL) VH: QVQLQQPGPELVKPGTSVMLSCKASGYAFSRYSMYWVKQSHGKSLEWIAFIDPYNGGSTYNQRFRGKATLTVDKSSSTAYMHLNTLTSDDSAVYYCARGGDYGWYLGVWGAGTTVTVSS VL: DIQMTQSPASLSASVGETVTITCRPSENIYTYLSWYQQKRGKSPQLLVYNAKTLPENVPSRFSGSGSGTQFSLKIDSLQPEDFGNYYCQHHYGNPLTFGAGTKLELKR : 0.26 nM

Measured IC50 of Hu1217-2-2 (anti-TIGIT positive control antibody) (antibody, V domains shown) VH: EVQLVESGGGLVQPGGSLRLSCAASGFTFSDYYMYWVRQAPGKGLEWVAYITKGGGSTYYPDSVKGRFTISRDNAKNTLYLQMNSLRAEDTAVYYCARQTNYDFTMDYWGQGTLVTVSS VL: EIVMTQSPATLSVSPGERATLSCKASQDVGTSVAWYQQKPGQAPRLLIYWASARHTGIPARFSGSGSGTEFTLTISSLQSEDFAVYYCQQYSSYPLTFGGGTKVEIK : 0.62 nM

Measured IC50 of huTIGIT-6-3 (antibody, human IgG1, kappa, V domains shown, Humanized IgG; also called 6VH6.M6 + 6VL1.M1) VH: QVQLVQSGAEVKKPGASVKVSCKASGYTFTENAMHWVRQAPGQRLEWIGGINPNQGGTSYSQKFQGRATLTVDTSASTAYMELSSLRSEDTAVYYCTRSSYYRYDLDYWGQGTTVTVSS VL: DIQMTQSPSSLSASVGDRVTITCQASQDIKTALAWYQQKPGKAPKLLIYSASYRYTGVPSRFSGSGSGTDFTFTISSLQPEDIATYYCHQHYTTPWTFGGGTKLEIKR : 1.1 nM

Measured IC50 of huTIGIT-6-1 (antibody, human IgG1, kappa, V domains shown, Humanized IgG; also called 6VH6.M4 + 6VL1.M1) VH: QVQLVQSGAEVKKPGASVKVSCKASGYTITENTMHWVRQAPGQRLEWIGGINPNQGGTSYSQKFQGRATLTVDTSASTAYMELSSLRSEDTAVYYCTRSSYYRYDLDYWGQGTTVTVSS VL: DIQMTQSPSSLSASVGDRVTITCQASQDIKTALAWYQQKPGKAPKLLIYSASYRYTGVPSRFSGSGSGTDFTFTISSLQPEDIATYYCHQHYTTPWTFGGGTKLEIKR : 1.04 nM

Measured IC50 of huTIGIT-19-1 (antibody, human IgG1, kappa, V domains shown, Humanized IgG; also called 19VH4.M9 + 19VL1.M4) VH: QVQLVQSGAEVKKPGASVKVSCKASGYTFTRYSMYWVRQAPGQGLEWIAFIDAYSGGSTYNQRFRGKATLTVDTSISTAYMELSRLRSDDTAVYYCARGGDYGWYLGVWGQGTLVTVSS VL: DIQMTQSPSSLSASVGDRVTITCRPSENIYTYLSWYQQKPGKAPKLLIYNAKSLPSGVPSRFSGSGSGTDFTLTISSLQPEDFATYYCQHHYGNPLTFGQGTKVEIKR : 0.22 nM

Measured IC50 of TIGIT-6 chimeric antibody (antibody, human IgG1, kappa, V domains shown, also called 6VH + 6VL) VH: QVQLKQSGPELVKPGASVKISCKTSGYTITENTMHWVKQSHGKSLEWIGGINPNNGGTSYNQQFKGKATLTVDKSSSTAYMELRSLTSEDSAVYYCTRSSYYRYDLDYWGQGTTVTVSS VL: DIQMTQSHKFMSTSVGDRVSITCKASQDVKTALAWYQQKPGQSPKLLIYSASYRYTGVPDRFTGSGSGTDFTFTISSVQAEDLAVYYCHQHYTTPWTFGGGTKLEIKR : 0.566 nM
